Source listed as paper PMC9413440.

Assay: Pharmacokinetic assessment in neutropenic A. baumannii-infected mice
Assay type: in vivo, mouse
Conditions: female, BALB/c, mouse; thigh; 75 mg/kg, IV, single dose
reportedProperty: clearance (mL/min/kg)

[
  {
    "chemicalSmiles": "Cc1c(CN(C)C(=O)/C=C/c2cnc3c(c2)CC[C@H](N)C(=O)N3)oc2ccccc12",
    "result": 18.9
  }
]

---

# maps each entry to its MIC
System: E. coli AR-0048
Experiment: MIC, broth microdilution (CLSI)
Assay type: cell-based
Details: Escherichia coli, AR0048; E. coli AR-0048 clinical isolate

[
  {
    "compound": "Cc1c(CN(C)C(=O)/C=C/c2cnc3c(c2)CC(N)C(=O)N3)oc2ccccc12 (stereo not shown) [Debio-1452-NH3, reference compound]",
    "system": "E. coli AR-0048",
    "unitAbbrev": "µg/mL",
    "relationOperator": "=",
    "MIC": 32
  },
  {
    "compound": "Cc1c(CN(C)C(=O)/C=C/c2cnc3c(c2)CCC(=O)N3)oc2ccccc12 [Debio-1452, reference compound]",
    "system": "E. coli AR-0048",
    "unitAbbrev": "µg/mL",
    "relationOperator": ">",
    "MIC": 32
  },
  {
    "compound": "Cc1c(CN(C)C(=O)/C=C/c2cnc3c(c2)CC[C@H](NC(=O)OC(C)(C)C)C(=O)N3)oc2ccccc12 [(S)-11]",
    "system": "E. coli AR-0048",
    "unitAbbrev": "µg/mL",
    "relationOperator": "=",
    "MIC": 16
  },
  {
    "compound": "Cc1c(CN(C)C(=O)/C=C/c2cnc3c(c2)CCC(N)C(=O)N3)oc2ccccc12 (racemic) [(±)-7]",
    "system": "E. coli AR-0048",
    "unitAbbrev": "µg/mL",
    "relationOperator": "=",
    "MIC": 4
  },
  {
    "compound": "Cc1c(CN(C)C(=O)/C=C/c2cnc3c(c2)CCCC(=O)N3)oc2ccccc12 [compound 10]",
    "system": "E. coli AR-0048",
    "unitAbbrev": "µg/mL",
    "relationOperator": "=",
    "MIC": 8
  },
  {
    "compound": "Cc1c(CN(C)C(=O)/C=C/c2cnc3c(c2)CC2(CNC2)C(=O)N3)oc2ccccc12 [compound 2]",
    "system": "E. coli AR-0048",
    "unitAbbrev": "µg/mL",
    "relationOperator": "=",
    "MIC": 8
  },
  {
    "compound": "Cc1c(CN(C)C(=O)/C=C/c2cnc3c(c2)CC[C@@H](N)C(=O)N3)oc2ccccc12 [(R)-7]",
    "system": "E. coli AR-0048",
    "unitAbbrev": "µg/mL",
    "relationOperator": "=",
    "MIC": 128
  },
  {
    "compound": "Cc1c(CN(C)C(=O)/C=C/c2cnc3c(c2)CCC(CN)C(=O)N3)oc2ccccc12 (racemic) [(±)-8]",
    "system": "E. coli AR-0048",
    "unitAbbrev": "µg/mL",
    "relationOperator": "=",
    "MIC": 16
  },
  {
    "compound": "Cc1c(CN(C)C(=O)/C=C/c2cnc3c(c2)CC[C@H](N)C(=O)N3)oc2ccccc12 [fabimycin]",
    "system": "E. coli AR-0048",
    "unitAbbrev": "µg/mL",
    "relationOperator": "=",
    "MIC": 2
  },
  {
    "compound": "Cc1c(CN(C)C(=O)/C=C/c2cnc3c(c2)CC2(CC(N)C2)C(=O)N3)oc2ccccc12 (racemic) [(±)-3]",
    "system": "E. coli AR-0048",
    "unitAbbrev": "µg/mL",
    "relationOperator": "=",
    "MIC": 16
  }
]
